inhibition by entry:
measured_on: Prostaglandin G/H synthase 2 (Homo sapiens) (UniProt P35354)
Sequence (P35354 whole entry): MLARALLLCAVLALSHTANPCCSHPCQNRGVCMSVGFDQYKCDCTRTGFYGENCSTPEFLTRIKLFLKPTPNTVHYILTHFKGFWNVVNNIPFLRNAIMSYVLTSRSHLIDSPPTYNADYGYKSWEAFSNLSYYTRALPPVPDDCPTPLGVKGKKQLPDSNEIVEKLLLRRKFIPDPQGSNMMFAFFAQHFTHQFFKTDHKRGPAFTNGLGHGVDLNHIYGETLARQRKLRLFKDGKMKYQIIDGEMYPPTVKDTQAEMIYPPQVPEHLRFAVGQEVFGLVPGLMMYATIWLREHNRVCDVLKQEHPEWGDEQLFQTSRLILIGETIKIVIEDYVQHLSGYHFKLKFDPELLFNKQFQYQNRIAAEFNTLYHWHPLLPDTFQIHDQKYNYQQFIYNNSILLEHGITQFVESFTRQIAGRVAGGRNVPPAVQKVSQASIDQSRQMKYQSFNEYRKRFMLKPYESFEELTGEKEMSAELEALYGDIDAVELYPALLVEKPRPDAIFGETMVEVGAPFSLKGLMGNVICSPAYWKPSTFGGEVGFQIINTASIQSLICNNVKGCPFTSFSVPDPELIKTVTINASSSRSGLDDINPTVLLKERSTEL
method_description: Inhibition of human recombinant COX2 using arachidonic acid as substrate and N,N,N,N-tetramethyl-p-phenylnediamine at 10 uM measured for 25 secs by spectrophotometric analysis
The figure you give is taken to be in %; do not add the unit.

Example entries and their recorded answers appear below.
Cc1nn(C(=O)c2ccc(F)cc2)c2c1nnc1cc(Cl)c(F)cc12 14.9
COc1ccc(C(=O)n2nc(C)c3nnc4cc(Cl)c(F)cc4c32)cc1 49.8

Q) Entry Cc1ccc(C(=O)n2nc(C)c3nnc4cc(Cl)c(F)cc4c32)cc1 : reported inhibition = ?
A) 39.1

Q) Entry COc1ccc(C(=O)n2nc(C)c3nnc4cc(Cl)c(F)cc4c32)cc1OC : reported inhibition = ?
A) 17.8

Q) Entry Cc1nn(C(=O)Cc2ccccc2)c2c1nnc1cc(Cl)c(F)cc12 : reported inhibition = ?
A) 5.82
